Counter-ions that a name gives are not always drawn.
Observed pIC50 values for human endothelial constitutive NOS (hecNOS) (Homo sapiens) are listed in what follows.
One number for each entry, as −log10 of the molar value.

>  <compound>
CC(=N)NCCCC[C@H](N)CNC(=N)N [Example 2, trihydrochloride]

>  <pIC50>
3.32

$$$$

Asked: State its pIC50: CC(=N)NCCCC[C@H](N)CNS(C)(=O)=O [Example 3, dihydrochloride]
Given back: 2.18

====

target: human inducible NOS (hiNOS) (Homo sapiens, UniProt P35228)
Where a name gives a salt, the structure may show the parent alone.
reportedProperty: pIC50
Numbers only, as −log10 of the molar value.

>  <molecule>
CC(=N)NCCCC[C@H](N)CNS(C)(=O)=O [Example 3, dihydrochloride]

>  <reportedProperty>
pIC50

>  <numericResult>
3.97

$$$$

Asked: State its pIC50: CC(=N)NCCCC[C@H](N)CNC(=N)N [Example 2, trihydrochloride]
Given back: 4.66
